molecular target: (NANP)6 (Plasmodium falciparum); assay: SPR, antibody on chip
experimental.readout: Kd (nM)

>>> experimental_value("AB-007061 (antibody, V domains shown) VH: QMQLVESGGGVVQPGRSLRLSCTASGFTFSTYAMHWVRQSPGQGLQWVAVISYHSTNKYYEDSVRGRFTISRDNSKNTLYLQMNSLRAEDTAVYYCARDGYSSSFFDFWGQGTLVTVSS VL: DIQMTQSPSTLSASVGDRVAITCRASQSIDRWLAWYQQQPGKAPKLLMSGASVLESGVPSRFSGSGSGTEFTLTISSLQPDDFATYYCQHYNSYFVTFGQGTKVEIK")
0.0657
>>> experimental_value("AB-007063 (antibody, V domains shown) VH: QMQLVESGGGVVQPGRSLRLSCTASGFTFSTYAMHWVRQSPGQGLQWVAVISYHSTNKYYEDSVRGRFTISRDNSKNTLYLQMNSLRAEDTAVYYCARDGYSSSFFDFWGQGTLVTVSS VL: DIQMTQSPSTLSASVGDRVAITCRASQSISRWLAWYQQQPGKAPKLLMAGASVLESGVPSRFSGSGSGTEFTLTISSLQPDDFATYYCQHYNSYFVTFGQGTKVEIK")
0.194
>>> experimental_value("AB-007071 (antibody, V domains shown) VH: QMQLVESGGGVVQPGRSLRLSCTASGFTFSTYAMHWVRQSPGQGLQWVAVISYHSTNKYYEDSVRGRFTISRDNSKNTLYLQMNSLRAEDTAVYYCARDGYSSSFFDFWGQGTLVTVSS VL: DIQMTQSPSTLSASVGDRVAITCRASQSISRWLAWYQQQPGKAPKLLMSGASSLESGVPSRFSGSGSGTEFTLTISSLQPDDFATYYCQHYNSYFVTFGQGTKVEIK")
0.433
>>> experimental_value("AB-007044 (antibody, V domains shown) VH: QMQLVESGGGVVQPGRSLRLSCTASGFTFSTYAMHWVRQSPGQGLQWVAVISYHSTNKYYEESVRGRFTISRDNSKNTLYLQMNSLRAEDTAVYYCARDGYSSSFFDFWGQGTLVTVSS VL: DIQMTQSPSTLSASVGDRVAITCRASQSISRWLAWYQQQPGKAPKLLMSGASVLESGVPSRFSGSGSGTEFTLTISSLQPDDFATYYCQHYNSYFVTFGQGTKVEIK")
0.139
>>> experimental_value("AB-007033 (antibody, V domains shown) VH: QMQLVESGGGVVQPGRSLRLSCAASGFTFSTYAMHWVRQAPGQGLEWVAVISYHSTNKYYADSVRGRFTISRDNSKNTLYLQMNSLRAEDTAVYYCARDGYSSSFFDFWGQGTLVTVSS VL: DIQMTQSPSTLSASVGDRVTITCRASQSISRWLAWYQQQPGKAPKLLMSGASVLESGVPSRFSGSGSGTEFTLTISSLQPDDFATYYCQHYNSYFVTFGQGTKVEIK")
0.0631
